TARGET UNDER TEST: bat RaTG12-CoV RBD (Bat coronavirus RaTG13 (printed as …, UniProt A0ABF7PLN6))

BINDER | binding result
GAR11 (antibody, V domains shown) VH: EVQLVQSGTEVKKPGSSVKVSCEASGGTFSKYAITWVRQAPGQGLEWMGGIIPIFGTANYAQKFQDRVKITADEITSIAYMELNSLSSEDTAVYYCARDNRGRGFGEILSYYYGMDVWGQGTTVTVSS VL: SALTQPASVSGSPGQSITISCTGTSSDVGGYNYVSWYQQHPGKAPKLMIYDVATRPSGVSDRFSGSKSGNTASLTISGLQAEDEADYYCSSYTSSNTLAFGGGTKLTVL | binds
GAR13 (antibody, V domains shown) VH: EVQLVESGGGLVQPGGSLRLSCAASGFTFSNYDMHWVRQVTGKGLEWVSLIGTSGDTYYPGSVKGRFTISRDNAKNSLYLQMNSLRADDTAVYYCVRAAFDDHNIYSWFDSWGQGTLVTVSS VL: DIQMTQSPSSLSASVGDRVTITCRASQSIGRYLNWYQQKPGKAPKLLIYTASSLQSGVPSRFSGSGSGTEFTLTISSLQPEDFATYYCQQSYNIPPLTFGGGTKVEIK | binds
GAR14 (antibody, V domains shown) VH: EVQLVESGGGLVQPGGSLRLSCAASGFTFSRYDMHWVRQTTGKGLEWVSAIGTAGDTYYPDSVKGRFTISRENAKNSLHLQMNSLRVGDTAVYFCARAVDCSDISCYSNWYFDLWGRGTLVTVSS VL: DIQLTQSPSSLSASVGDRVTITCRASQTISSFLNWYQQKPGKAPHLLIYAASSLQSGVPSRFSGSGSGTDFTLTITNLQPEDFATYYCQQSYSTPPITFGQGTRLEIK | binds

Values compiled from paper PMC9907207.
